Cited source: PubChem BioAssay (NCI)

Below, each of the molecules is paired with its reported growth value.
Test system: NCI-H23 lung
Assay: NCI-60 one-dose screen, 48 h (100 = growth as untreated, 0 = no growth, -100 = all killed)
Conditions: 10 µM unless noted
This is part of a sample that, as a whole, favours compounds with a hit. Of some 83,000 tested, about 20% had one in any assay.
Unit % implied. Number only.

Here's what some known entries look like.
[[record]]
molecule = "COc1ccc(-c2nsc3c2NC(=O)CC3c2cccc(OC)c2)cc1 (stereo unspecified)"
recorded_value = 43.3

[[record]]
molecule = "CCOC(=O)c1cc2c(n1Cc1cccc(OC)c1)-c1oncc1CCC2"
recorded_value = 36.4

[[record]]
molecule = "COc1ccc(CCN2C(=O)CCSC2=S)cc1"
recorded_value = 80


# growth lookup, item O=C1N=c2ccccc2=C1c1sc(=Nc2ccccc2)n(Nc2ccccc2)c1O 102

Try the molecule Cc1ccc(F)cc1NC(=O)c1cc(Cl)ccc1Nc1ccccc1 60.1

How about this molecule: Cc1cc(OC(=O)c2ccc([N+](=O)[O-])cc2)nc2[nH]c(=O)sc12 103

Try COc1ccc(/C=C/C(=O)c2ccc(Nc3nc(NCCO)nc(Nc4ccc(Cl)cc4)n3)cc2)cc1 next. 89.6

Here is the next molecule: CC1CCCCN1CCCNC(=O)c1ccc2c(c1)sc1nc(-c3ccc(F)cc3)cn12 (stereo unspecified) 92.1

* * *

System: NCI-H23 lung
Assay: NCI-60 one-dose screen, 48 h (100 = growth as untreated, 0 = no growth, -100 = all killed)
Settings: 10 µM unless noted
Compounds without any hit were thinned out: in the full panel of roughly 83,000, 20% have a hit.
Returns Satisfied if the recorded growth is greater than or equal to 80%, and Not satisfied otherwise.

[[record]]
molecule = "CCn1c(SCC(=O)Nc2cc(C(F)(F)F)ccc2Cl)nc2ccccc2c1=O"
cat = "Not satisfied"


hey, is growth for this one >= 80%? COc1ccc(CCN2C(=O)/C(=C/c3ccc(C4Oc5ccccc5C5CC(c6cccc(OC)c6)=NN54)cc3)SC2=S)cc1 (stereo not given) Satisfied

Ok, now Cc1c(C(=O)OCCO)cc(-c2ccc(Cl)cc2)n1-c1ccc(Cl)cc1Cl Not satisfied

Subsequent entry: COc1ccc(N2C(=O)CC(c3cc(OC)c(OC)c(OC)c3)C3C2=NC(=O)N3C)cc1 (stereo not given) Satisfied

And what about the molecule CN(C)c1ccc(/C=C/c2ccnc3c(O)cccc23)cc1 ? Not satisfied

* * *

System: A498 renal
Assay: NCI-60 one-dose screen, 48 h (100 = growth as untreated, 0 = no growth, -100 = all killed)
Conditions: 10 µM unless noted
The panel holds about 83,000 compounds, 20% with a hit somewhere; the sample as a whole holds those more often.
observable: growth (%)
Reply numerically in %, unit not repeated.

Answered cases to consult:
[[record]]
compound = "C=C[C@@H]1CCC/C=C/[C@@H]2C[C@H](O)C[C@H]2[C@H](O)/C=C/C(=O)O1"
recorded_value = -17.9

[[record]]
compound = "O=c1oc2ccc(I)cc2c(=O)n1-c1ccc(F)cc1F"
recorded_value = -43.9

[[record]]
compound = "O=C(Nc1ccc(N2CCNCC2)cn1)c1[nH]ncc1Nc1ncnc2sccc12"
recorded_value = 80.7

[[record]]
compound = "COC(=O)/C(CCC=C(C)C)=C1\\[C@@H](OC(C)=O)C[C@@]2(C)[C@H]1C[C@@H](O)[C@H]1[C@@]3(C)CC[C@H](NCCCNCCCCNCCCN)[C@@H](C)[C@@H]3CC[C@@]12C"
recorded_value = 69.1

[[record]]
compound = "O=C(Nc1ccc(Cl)cc1F)c1cc(F)ccc1O"
recorded_value = -55.6


Please give the measured growth for this compound: CN1C(=O)N(C)C2(c3ccccc3)OC(=S)NC12c1ccccc1 (stereo not given) 105

Item: Cn1cc([C@@H]2Nc3ccc4[nH]ncc4c3[C@H]3[C@H]4CCC(C4)[C@H]32)c(C(F)(F)F)n1 8.35

Next entry: O=C(CCc1nnc2sc(-c3ccc(Cl)cc3Cl)nn12)c1nc2ncccc2[nH]1 -68.6

Similarly, O=c1oc2ccc(Br)cc2c(=O)n1-c1ccc(I)cc1F ? -70.2

Let us now turn to COc1c(B(O)O)cccc1-c1nc2ccc3n[nH]c(F)c3c2c2c1CCCC2 65.7

// query: COc1ccc(CCN2CCC(CN(C)Cc3cnn(-c4ccccc4)c3)CC2)cc1 42.9

// repeat for CN1CCN(Cc2ccc(C(=O)Nc3cncc(C#Cc4cnc5cccnn45)c3)cc2C(F)(F)F)CC1 and report 11.3

Same thing, different compound: O=S(=O)(c1ccccc1)n1cc2c(c1-c1ccccc1)CCc1sc(Nc3ccccc3)nc1-2 89.4

Another compound: CNCCNc1nc2ccccc2c2c(=O)c3cc(F)ccc3sc12 38.9

Next entry: CCN(CCO)CCNc1ccc(C)c2sc3cc(Cl)ccc3c(=O)c12 1.76

Check CC(=O)c1ccc(Cc2ccc(C(C)=O)s2)s1 too. -68.7

// same read-out, input: Cc1ccc2nc(NC(=O)CSC(=S)N3CCN(c4ccccc4)CC3)sc2c1 108

Record: O=C(NC1CCCCC1)C(c1cccs1)N(CCc1ccccc1)C(=O)c1ccco1 (stereo not given) 93

Same for COc1ccc(CCN2C(=O)CCSC2=S)cc1OC 99.3

Now this one: c1ccc2cc3c(Nc4ccc(N5CCOCC5)cc4)ccnc3cc2c1 77.6

* * *

System: T-47D breast
Assay: NCI-60 one-dose screen, 48 h (100 = growth as untreated, 0 = no growth, -100 = all killed)
Conditions: 10 µM unless noted
The panel holds about 83,000 compounds, 20% with a hit somewhere; the sample as a whole holds those more often.
# note: exactly 80% is not below, so it is not satisfied; use satisfied for growth strictly under it

Reference set (2 entries):
[[record]]
compound = "COc1ccc(Cn2c(Br)c3c(c2Br)-c2nc(N)sc2CC3)cc1"
cat = "satisfied"

[[record]]
compound = "CCOC(=O)C1=C(C)N=c2s/c(=C\\c3ccccc3O)c(=O)n2C1c1ccc(OC)c2ccccc12 (stereo not given)"
cat = "satisfied"


growth under 80%? Item: CCCC(c1nnnn1C1CCCCC1)N1CCN(C(=O)c2ccco2)CC1 (stereo not given) not satisfied

Similarly, CCOc1ccc2nc(C)cc(Nc3ccc(Br)cc3)c2c1 ? not satisfied

Can you check COc1cc([C@@H]2NC(=O)NC(C)=C2C(=O)Nc2nc(-c3ccc(Cl)cc3)cs2)ccc1O next? satisfied

* * *

Tested on: CAKI-1 renal
Test: NCI-60 one-dose screen, 48 h (100 = growth as untreated, 0 = no growth, -100 = all killed)
Conditions: 10 µM unless noted
About 83,000 compounds went through this panel and 20% of them were active in at least one assay; those are over-represented in the sample as a whole.
observable: growth (%)
Report the value in % with no unit label.

As a guide, the following entries are already answered.
[[record]]
molecule = "COc1cc(C(C)n2cc(-c3ccccc3)nn2)ccc1OC1CCCCC1 (stereo not given)"
observable = "growth"
recorded_value = 48.7

[[record]]
molecule = "O=C(Nc1ccc(F)c(Cl)c1)Nc1ccc(Cl)c(Cl)c1"
observable = "growth"
recorded_value = 76.1

[[record]]
molecule = "Nc1n[nH]c2ccc([C@@H]3Nc4ccc5[nH]ncc5c4[C@H]4[C@H]5CCC(C5)[C@H]43)cc12"
observable = "growth"
recorded_value = 16.4

[[record]]
molecule = "O=c1c2cc(F)ccc2sc2c(NCCCNCCO)nc3ccc(Cl)cc3c12"
observable = "growth"
recorded_value = 27.8


Kindly consider the entry below.
Give CAKI-1 renal growth for O=C(Nc1ccc(-c2nc3cc4ccccc4cc3[nH]2)cc1)c1cccc(Br)c1 18.2

* * *

Tested on: SK-MEL-28 melanoma
Assay: NCI-60 one-dose screen, 48 h (100 = growth as untreated, 0 = no growth, -100 = all killed)
Conditions: 10 µM
This is part of a sample that, as a whole, favours compounds with a hit. Of some 83,000 tested, about 20% had one in any assay.
Below, each entry is listed with its recorded growth.
Give the value in % but do not write % after it.

These recorded examples may help you get a feel for the data.
[[record]]
molecule = "O=C1CCC(N2C(=O)c3cccc(NCCCCCCOc4ccc(Nc5nccc(Nc6ccccc6)n5)cc4)c3C2=O)C(=O)N1 (stereo not given)"
units_label = "%"
recorded_value = 82.9

[[record]]
molecule = "Oc1c(CN2CCN(c3ccccc3F)CC2)cc(Br)c2cccnc12"
units_label = "%"
recorded_value = -78

[[record]]
molecule = "COc1cc(/C=C2\\CN(C)C/C(=C\\c3cc(CN4CCOCC4)c(O)c(OC)c3)C2=O)cc(CN2CCOCC2)c1O"
units_label = "%"
recorded_value = 77.3


Returns the measured growth for the input molecule. Input: COc1cc(C#N)cc2[nH]c(=O)oc12 107

Repeat with CN1C(=O)N(C)C2(c3ccccc3)n3c(s/c(=C\c4ccccc4)c3=O)=NNC12c1ccccc1 (stereo not given) 101

COc1ccc(S(=O)(=O)N(Cc2ccc3c(n2)C=CC(C)(C)O3)C2CCC2)cc1OC , same question. -18.8

Please do the same for COc1cc(NC(=O)CCSc2nc3ccccc3c(=O)n2Cc2ccccc2)cc(OC)c1OC as well. 102

Another molecule: O=C(Nc1ccc(F)c(Cl)c1)Nc1ccc(Cl)c(Cl)c1 70.1

Could you do the same for N#C/C(=C\c1c(-c2ccccc2)[nH]c2ccccc12)C(=O)c1ccccc1 , please? 55.4

Same for O=C(Nc1ccc(F)cc1F)c1cc(Br)ccc1O 16.5
